# Species on record: Rattus norvegicus
# ASSAY NAME: Channel opening activity at KATP channel in Wistar rat pancreatic islets assessed as glucose-induced residual insulin secretion at 1 uM after 90 mins by radioimmunology
Consider the following molecules and their measured Activity readings.

Solved entries:
MOLECULE | RESULT
CC1(C)CC(NC(=S)Nc2cccc(C#N)c2)c2cc(F)ccc2O1 (stereo not given) | 80%
CC1(C)CC(N/C(=N/C#N)Nc2cccc(C#N)c2)c2cc(Br)ccc2O1 (stereo not given) | 90.5%
CC1(C)CC(NC(=S)Nc2ccc(C#N)cc2)c2cc(Br)ccc2O1 (stereo not given) | 57.5%

Query :: Which measured Activity value corresponds to CC1(C)CC(NC(=S)Nc2cccc([N+](=O)[O-])c2)c2cc(Br)ccc2O1 (stereo not given) ?
Result :: 64.3%

Query :: Which measured Activity value corresponds to CC1(C)CC(NC(=S)Nc2cccc(C#N)c2)c2cc(Br)ccc2O1 (stereo not given) ?
Result :: 65.5%
